The values you see were collected from PubChem BioAssay (NCI).

Catalogue of TGI values
# Test system: BT-549 breast
# METHOD_SUMMARY: NCI tumour cell line growth inhibition, 48 h
REPORTED_METRIC: TGI

# MOLECULE, TARGET_OF_ASSAY, VALUE
records = [
    ("N=C1C(c2nc(-c3ccc(Br)cc3)cs2)=C(O)CN1Cc1cccnc1", "BT-549 breast", "> 100 µM"),
    ("CNC(=O)c1cc(OC2CCC(NC(=O)Nc3ccc(Cl)c(C(F)(F)F)c3)CC2)ccn1 (stereo unspecified)", "BT-549 breast", "23.6 µM"),
    ("Cc1ncc(CN=Cc2ccc(Cl)cc2)c(N)n1", "BT-549 breast", "> 100 µM"),
    ("CC(=O)n1c(COS(C)(=O)=O)nc2ccccc21", "BT-549 breast", "> 100 µM"),
    ("COc1ccc2[nH]c(C(=O)N3CC(CCl)c4ccc(N)cc43)cc2c1 (stereo unspecified)", "BT-549 breast", "6.97 µM"),
    ("CN(C)c1ccc(N2C(=S)SC(=Nc3ccccc3)C2=Nc2ccccc2)cc1", "BT-549 breast", "> 100 µM"),
    ("COc1cc(C2C=C(c3cccc(NC(C)=O)c3)Nc3ncnn32)cc(OC)c1OC (stereo unspecified)", "BT-549 breast", "> 100 µM"),
    ("COc1ccc(N2C=Nn3c(nc4sc(C)c(C)c4c3=O)C2)cc1", "BT-549 breast", "> 100 µM"),
    ("CN(C)c1cccc2c(S(=O)(=O)N[C@H]3CC[C@H]4[C@@H]5CCc6cc(O)ccc6[C@H]5CC[C@]34C)cccc12", "BT-549 breast", "6.5 µM"),
    ("NCCC(N)C(=O)O (stereo unspecified)", "BT-549 breast", "> 100 µM"),
    ("COc1cccc(C2CC(C)(N3CCCC3)Oc3cc4c(cc32)OCO4)c1O (stereo unspecified)", "BT-549 breast", "87.7 µM"),
    ("Cn1ccnc1S/C(=C\\C=C(C#N)C#N)c1ccc(Cl)cc1", "BT-549 breast", "> 28.7 µM"),
    ("C=CCn1c2c(c3ccccc3c1=O)C(=O)c1ccccc1-2", "BT-549 breast", "> 100 µM"),
    ("CCNC(=O)Nc1cccc(C)n1", "BT-549 breast", "> 100 µM"),
    ("CC1=NOC2(C1)/C(=N/O)CCC/C2=N\\O (stereo unspecified)", "BT-549 breast", "> 100 µM"),
    ("Cn1ccnc1Sc1ccc(/C=N/NC(=O)c2ccccc2O)cc1[N+](=O)[O-]", "BT-549 breast", "> 100 µM"),
    ("CCOc1cc2ncc(C#N)c(Nc3ccc(OCc4cccc(F)c4)c(Cl)c3)c2cc1NC(=O)CC1CCSS1 (stereo unspecified)", "BT-549 breast", "> 25 µM"),
    ("Cc1ccc2[nH]cc(-c3nc(-c4c[nH]c5ncccc45)cs3)c2c1", "BT-549 breast", "> 100 µM"),
    ("O=C(Oc1ccc(Cl)cc1Cl)c1ccccc1Nc1ccnc(C(F)(F)F)c1", "BT-549 breast", "25.4 µM"),
    ("CC(C)CCCC(C)[C@H]1CCC2[C@@H]3CCC4Cc5nc6c(nc5C[C@]4(C)C3CC[C@@]21C)CC1CC[C@@H]2C(C[C@@H](O)[C@@]3(C)C2C[C@@H]2OC4(CCC(C)CO4)C(C)[C@@H]23)[C@@]1(C)C6 (stereo partly specified)", "BT-549 breast", "> 100 µM"),
    ("COc1cc(-c2nc3cc(F)ccc3s2)ccc1O", "BT-549 breast", "> 100 µM"),
    ("Cc1cc2c(cc1Cl)Sc1nnc(Nc3ccccc3)n1S2(=O)=O", "BT-549 breast", "34 µM"),
    ("COc1cc(/C(C#N)=C/c2ccc3c(c2OC)OCO3)cc2c1OCO2", "BT-549 breast", "29.3 µM"),
    ("N=C(N)SCCON1C(=O)c2ccccc2C1=O", "BT-549 breast", "> 100 µM"),
    ("CN(C)C(=S)N/N=C\\C=N/NC(=S)N(C)C", "BT-549 breast", "> 100 µM"),
    ("CC(=O)OC[C@H]1O[C@@H](O[C@H]2[C@H](OC(C)=O)C=CO[C@@H]2COC(C)=O)C(OC(C)=O)[C@H]2OC(C)(C)O[C@H]21 (stereo partly specified)", "BT-549 breast", "> 100 µM"),
    ("CN1CCN(CN2C(=O)C3C4C=CC(C3C2=O)C2C3C(=O)N(CN5CCN(C)CC5)C(=O)C3C42)CC1 (stereo unspecified)", "BT-549 breast", "69.6 µM"),
    ("C[C@@H]1C[C@@H](O)[C@]2(O)O[C@@H]3C[C@@]4(C=O)[C@@H](CC[C@@H]5[C@@H]4CC[C@]4(C)[C@@H](C6=CC(=O)OC6)CC[C@]54O)C[C@H]3O[C@@H]2O1", "BT-549 breast", "0.179 µM"),
    ("Cc1ccc(N=Nc2c(C)nn(C(=O)CC(=O)Nc3ccccc3)c2C)cc1C", "BT-549 breast", "> 100 µM"),
    ("Cc1c(C)c(C)c(-n2[nH]c(=O)n(C)c2=O)c(C)c1C", "BT-549 breast", "> 100 µM"),
    ("COC(=O)Cc1ccc2c(c1)Sc1ccc(CC(=O)OC)cc1N2C", "BT-549 breast", "91.7 µM"),
    ("CS(=O)(=O)CCNCc1nc(-c2ccc3ncnc(Nc4ccc(F)c(Cl)c4)c3c2)cs1", "BT-549 breast", "> 25 µM"),
    ("N#CCC1COc2ccccc2O1 (stereo unspecified)", "BT-549 breast", "> 10 µM"),
    ("COc1ccc(N[C@H](CS(=O)c2ccc(C)cc2)c2ccc(F)cc2)cc1 (stereo partly specified)", "BT-549 breast", "> 100 µM"),
    ("COc1ccc(CCn2cnc3ccccc32)cc1", "BT-549 breast", "> 100 µM"),
    ("COc1cc2c(cc1C[N+](C)(C)CSc1ccccc1)-c1ccccc1CC2", "BT-549 breast", "15.5 µM"),
    ("Cc1nc2ccc(S(=O)(=O)Nc3ccc(Cl)cc3)cc2c(=O)n1NC(=O)CNc1ccc(Cl)cc1", "BT-549 breast", "> 100 µM"),
    ("CCC(C)[C@H](NC(=O)N[C@H](C)c1ccccc1)C(=O)OC (stereo partly specified)", "BT-549 breast", "> 100 µM"),
    ("Cc1ccc2c(=O)cc(-c3csc4ccccc34)[nH]c2n1", "BT-549 breast", "22.3 µM"),
    ("COC(=O)/C=C/c1ccccc1N=[S@](C)(=O)c1ccc(C)cc1", "BT-549 breast", "> 100 µM"),
    ("COC(=O)/C=C\\Sc1ccn(/C=C\\C(=O)OC)c(=S)n1", "BT-549 breast", "44.9 µM"),
]
